- methodSummary: soluble on expression in E. coli; label from the status in PepcDB or PDB records
resultType: soluble on expression in E. coli

Please report soluble on expression in E. coli for the following sequence: PEDPSDLLQHVKFQSSNFENILTWDSGPEGTPDTVYSIEYKTYGERDWVAKKGCQRITRKSCNLTVETGNLTELYYARVTAVSAGGRSATKMTDRFSSLQHTTLKPPDVTCISKVRSIQMIVHPTPTPIRAGDGHRLTLEDIFHDLFYHLELQVNRTYQMHLGGKQREYEFFGLTPDTEFLGTIMILVPTWAKESAPYMCRVKTLPDRTWT soluble

Please report soluble on expression in E. coli for the following sequence: MGTEVSTSPTSLIDQTVVPGDVVLDLSNMTNQTIKLGSGLRQDNEVISVMRAGKLRYSKPNKYWVESSHKRYVPRPEDHVLGIVVDCKGENYWIDIKGPQLALLPVLAFEGANRRNYPKFEVSTLLYTRVVKTNTGMNPELSCVDESGKAAGFGPLKDGFMFETSTGLSRMLLSSPTCPVLEALGKKLSFETAFGLNGRCWVHAAAPRIVIIVANALMNSETLSGTQQRIMVEKLLEKISD soluble
